Answer each item with its documented inhibition at 50 µM.
Tested on: mast cell degranulation
Experiment: Serotonin release assay (inhibition of mast cell degranulation)
Type: cell-based
Conditions: Mast cell; 50 μM; Table 4
Excerpt: A serotonin release assay is utilized to study the utility of the inventive compounds for treatment of asthma and allergy. […] This assay measures mast cell degranulation, which is an early phase reaction to allergen challenge. Mast cells grown in tissue culture are first loaded with ^3 H serotonin, which is incorporated into the granules in the cells. […] When the cells degranulate, ^3 H Serotonin is released into the medium, and can be measured directly. […]
The figure you give is taken to be in %; do not add the unit.

Query string: # query: inhibition at 50 µM of entry C=CCCCCn1c(=O)c2c(ncn2C)n(C)c1=O [CT1539, 1-(5-hexenyl)-3,7-dimethylxanthine]
Result string: 35.8

Query string: # query: inhibition at 50 µM of entry C=CCCCCCCCCCCCn1c(=O)c2c(ncn2C)n(C)c1=O [CT2555, 1-(12-tridecenyl)-3,7-dimethylxanthine]
Result string: 36.1

Query string: # query: inhibition at 50 µM of entry C=CCCCCn1c(=O)n(C)c(=O)c2ccccc21 [CT1203, 1-(5-hexenyl)-3-methylbenzoyleneurea]
Result string: 114

Query string: # query: inhibition at 50 µM of entry C=CCCCCN1C(=O)CCN(C)C1=O [CT1812, 3-(5-hexenyl)-1-methyldihydrouracil]
Result string: -3.14

Query string: # query: inhibition at 50 µM of entry CC/C=C\CCCCCCn1c(=O)c2c(ncn2C)n(C)c1=O [CT2560, 1-(7-cis-decenyl)-3,7-dimethylxanthine]
Result string: 63.1

Query string: # query: inhibition at 50 µM of entry C=CCCCn1c(=O)c2c(ncn2C)n(C)c1=O [CT1575, 1-(4-pentenyl)-3,7-dimethylxanthine]
Result string: 46

Query string: # query: inhibition at 50 µM of entry C=CCCCCCCCCn1c(=O)c2c(ncn2C)n(C)c1=O [CT1563, 1-(9-Decenyl)-3,7-dimethylxanthine]
Result string: 7.39

Query string: # query: inhibition at 50 µM of entry CC(C)=CCC[C@H](C)CCCn1c(=O)c2c(ncn2C)n(C)c1=O [CT2536S]
Result string: 97.4

Query string: # query: inhibition at 50 µM of entry C=CCCCCCCCCCn1c(=O)c2[nH]cnc2n(C)c1=O [CT1406, 1-(10-undecenyl)-3-methylxanthine]
Result string: 59.4

Query string: # query: inhibition at 50 µM of entry C=CCCCCCCCCCn1c(=O)ccn(C)c1=O [CT1823, 3-(10-undecenyl)1-methyluracil]
Result string: 41.1

Query string: # query: inhibition at 50 µM of entry C/C=C/CCCn1c(=O)c2c(ncn2C)n(C)c1=O [CT1581, 1-(trans-4-Hexenyl)-3,7-dimethylxanthine]
Result string: 46.3

Query string: # query: inhibition at 50 µM of entry C=CCCCCCCCn1c(=O)c2c(ncn2C)n(C)c1=O [CT1550, 1-(8-nonenyl)-3,7-dimethylxanthine]
Result string: 13.4

Query string: # query: inhibition at 50 µM of entry C=CCCCCCCCCCn1c(=O)c(C)cn(C)c1=O [CT1931, 3-(10-undecenyl)-1-methylthymine]
Result string: 72.2

Query string: # query: inhibition at 50 µM of entry C=CCCCCCCCN1C(=O)c2ccccc2C1=O [CT1102, N(8-nonenyl)phthalimide]
Result string: 71.1

Query string: # query: inhibition at 50 µM of entry CCCCC/C=C\C/C=C\CCCCCCCCn1c(=O)c2c(ncn2C)n(C)c1=O [CT1524]
Result string: -73.3
